Test system: HepG2 cells
Assay: XTT cell death assay, HepG2 hepatocarcinoma cells
Format: cell-based, human
Conditions: Homo sapiens, HepG2, *Greater than 50% inhibition, dilutions 0.01 nM to 200 μM, usually 24 or 48 hours, read-out: HepG2* (liver cancer): concentration with greater than 50% inhibition
minimal effective concentration listing for selected compounds.
QUANTITY_KIND: minimal effective concentration (µM)

COMPOUND	UNIT_STRING	OBSERVED_MEASUREMENT
CC(Cc1ccc2ccccc2c1)NCC(O)c1ccc(O)cc1 (stereo not shown)	µM	100
CC(Cc1cccc2ccccc12)NCCc1ccc(O)cc1 (stereo not shown)	µM	100
CC(Cc1ccc2ccccc2c1)NCCc1ccc(O)cc1 (stereo not shown)	µM	200
O=C(O)c1cc(O)c(O)c(O)c1	µM	200

---

System: A549
Assay: XTT cell death assay, A549 lung carcinoma cells
Type: cell-based
Settings: Homo sapiens, # = 200 uM not tested, read-out: A549: concentration with effect on cancer cells

COMPOUND	minimal effective concentration (µM)
CC(Cc1ccc2ccccc2c1)NCC(O)c1ccccc1O (stereo not drawn)	100
Cc1ccc(CC(C)NCC(O)c2cccc(O)c2)c2ccccc12 (stereo not drawn)	100
CC(Cc1cccc2ccccc12)Nc1ccc(O)cc1 (stereo not drawn)	100

---

Tested on: A549
Assay: XTT cell death assay, A549 lung carcinoma cells
Type: cell-based
Conditions: Homo sapiens, # = 200 uM not tested, read-out: A549: concentration with effect on cancer cells

COMPOUND	TARGET_ENTITY	minimal effective concentration / µM
Cc1ccc(CC(C)NCC(O)c2ccccc2)c2ccccc12 (centres unmarked) [NT038]	A549	100
CC(Cc1ccc2ccccc2c1)NCC(O)c1ccccc1 (centres unmarked) [NT020]	A549	100
Cc1ccc(CC(C)NCC(O)c2ccc(O)cc2)c2ccccc12 (centres unmarked) [NT039]	A549	100
CC(Cc1ccc2ccccc2c1)NCCc1ccc(O)cc1 (centres unmarked) [NT021]	A549	100
CC(Cc1ccc2ccccc2c1)NCC(O)c1cccc(O)c1 (centres unmarked) [NT023]	A549	100
CC(Cc1cccc2ccccc12)NCC(O)c1ccc(O)cc1 (centres unmarked) [NT019]	A549	100
CC(Cc1ccc2ccccc2c1)Nc1ccc(O)cc1 (centres unmarked) [NT018]	A549	100
CC(Cc1cccc2ccccc12)NCCc1ccc(O)cc1 (centres unmarked) [NT016]	A549	100
CC(Cc1cccc2ccccc12)NCC(O)c1ccccc1O (centres unmarked) [NT029]	A549	100
CC(Cc1cccc2ccccc12)NCC(O)c1cccc(O)c1 (centres unmarked) [NT022]	A549	100
CC(Cc1ccc2ccccc2c1)NCC(O)c1ccc(O)cc1 (centres unmarked) [NT026]	A549	100

---

System: HepG2 cells
Test: XTT cell death assay, HepG2 hepatocarcinoma cells
Assay type: cell-based, human
Settings: Homo sapiens, HepG2, *Greater than 50% inhibition, dilutions 0.01 nM to 200 μM, usually 24 or 48 hours, read-out: HepG2* (liver cancer): concentration with greater than 50% inhibition
minimal effective concentration listing for selected molecules.

MOLECULE	TARGET_ENTITY	UNIT_STRING	minimal effective concentration
CC(Cc1ccc2ccccc2c1)NCC(O)c1ccccc1 (centres unmarked)	HepG2 cells	µM	100
CC(Cc1cccc2ccccc12)NCC(O)c1ccccc1O (centres unmarked)	HepG2 cells	µM	100
CC(Cc1ccc2ccccc2c1)NCC(O)c1cccc(O)c1 (centres unmarked)	HepG2 cells	µM	100
CC(N)c1ccc2ccccc2c1 (centres unmarked)	HepG2 cells	µM	200
CC(N)c1cccc2ccccc12 (centres unmarked)	HepG2 cells	µM	100
CC(Cc1cccc2ccccc12)NCC(O)c1ccc(O)cc1 (centres unmarked)	HepG2 cells	µM	100
CC(Cc1ccc2ccccc2c1)NCC(O)c1ccccc1O (centres unmarked)	HepG2 cells	µM	100
CC(Cc1ccc2ccccc2c1)Nc1ccc(O)cc1 (centres unmarked)	HepG2 cells	µM	200
CC(Cc1cccc2ccccc12)NCC(O)c1cccc(O)c1 (centres unmarked)	HepG2 cells	µM	100
COc1ccc2cc(C(C)N)ccc2c1 (centres unmarked)	HepG2 cells	µM	200
Cc1ccc(CC(C)NCCc2ccc(O)cc2)c2ccccc12 (centres unmarked)	HepG2 cells	µM	200
